# Assayed target: GPR174 (Homo sapiens)
# Sequence (Q9BXC1 whole entry): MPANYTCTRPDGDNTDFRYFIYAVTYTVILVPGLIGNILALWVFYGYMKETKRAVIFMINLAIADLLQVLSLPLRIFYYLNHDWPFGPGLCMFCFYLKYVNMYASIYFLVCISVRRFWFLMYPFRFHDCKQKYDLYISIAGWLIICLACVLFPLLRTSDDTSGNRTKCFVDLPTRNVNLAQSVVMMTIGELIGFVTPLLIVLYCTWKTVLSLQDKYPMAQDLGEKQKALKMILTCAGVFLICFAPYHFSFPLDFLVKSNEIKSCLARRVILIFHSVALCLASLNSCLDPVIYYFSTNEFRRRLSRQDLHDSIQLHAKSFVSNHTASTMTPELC
# Test name: CRE-Luc reporter Gs signaling assay with GPR174
# Type: cell-based
# Set-up: host or cells: HEK293 or CHO cell lines (ATCC)
# Condition context: pCRE-Luc reporter
Provide the recorded Fold decrease in Gs signaling activity for the entries that follow.
Answers are plain numbers, in fold.

Worked examples follow.
* O=C(c1ccccc1)N1CCN(c2cc(N3CCCCC3)c(F)cc2[N+](=O)[O-])CC1 [compound 6] | 3.8
* CC(=O)N1CCN(c2cc(N3CCC(C)CC3)c(F)cc2[N+](=O)[O-])CC1 [compound 13] | 2.2
* CC(C)(C)Oc1ccc(C2C3=C(CCCC3=O)NC3=C2C(=O)c2ccccc23)cc1 (centres unmarked) [compound 44] | 4.7
* CCOC(=O)N1CCN(c2cc(N3CCCCC3)c(F)cc2[N+](=O)[O-])CC1 [compound 7] | 2.4
* COc1cccc(C2C3=C(CCCC3=O)NC3=C2C(=O)c2ccccc23)c1 (centres unmarked) [compound 28] | 1.9

Hi! Can you tell me Fold decrease in Gs signaling activity for each of these compounds?
1. O=C1CCCC2=C1C(c1cccnc1)C1=C(N2)c2ccccc2C1=O (centres unmarked) [compound 37]
2. CC(=O)N1CCN(c2cc(N3CCCCC3)c(F)cc2[N+](=O)[O-])CC1 [compound 2]
3. CC1CCCCN1c1cc(N2CCN(C(=O)C(C)(C)C)CC2)c([N+](=O)[O-])cc1F (centres unmarked) [compound 17]

Solution:
2.8
1.7
2.0

Hi! Can you tell me Fold decrease in Gs signaling activity for each of these compounds?
1. O=C1CCCC2=C1C(c1ccc([N+](=O)[O-])cc1)C1=C(N2)c2ccccc2C1=O (centres unmarked) [compound 38]
2. CC(C)c1ccc(C2C3=C(CCCC3=O)NC3=C2C(=O)c2ccccc23)cc1 (centres unmarked) [compound 29]
3. CCc1ccc(C2C3=C(CCCC3=O)NC3=C2C(=O)c2ccccc23)cn1 (centres unmarked) [compound 54]

Solution:
1: 8.6; 2: 5.3; 3: 7

Hi! Can you tell me Fold decrease in Gs signaling activity for each of these compounds?
1. O=C1CCCC2=C1C(c1ccccc1)C1=C(N2)c2ccccc2C1=O (centres unmarked) [compound 25]
2. C=CCOc1ccc(C2C3=C(CCCC3=O)NC3=C2C(=O)c2ccccc23)cc1 (centres unmarked) [compound 50]
3. C=C(C)COc1ccc(NC(=O)Nc2ccccc2)cc1 [compound 56]

Solution:
1: 4.2; 2: 10.1; 3: 3

* * *

# Assayed target: ADBR2 (Homo sapiens, UniProt P07550)
# Construct: host or cells: HEK293 or CHO cell lines (ATCC)
# Sequence (P07550 whole entry): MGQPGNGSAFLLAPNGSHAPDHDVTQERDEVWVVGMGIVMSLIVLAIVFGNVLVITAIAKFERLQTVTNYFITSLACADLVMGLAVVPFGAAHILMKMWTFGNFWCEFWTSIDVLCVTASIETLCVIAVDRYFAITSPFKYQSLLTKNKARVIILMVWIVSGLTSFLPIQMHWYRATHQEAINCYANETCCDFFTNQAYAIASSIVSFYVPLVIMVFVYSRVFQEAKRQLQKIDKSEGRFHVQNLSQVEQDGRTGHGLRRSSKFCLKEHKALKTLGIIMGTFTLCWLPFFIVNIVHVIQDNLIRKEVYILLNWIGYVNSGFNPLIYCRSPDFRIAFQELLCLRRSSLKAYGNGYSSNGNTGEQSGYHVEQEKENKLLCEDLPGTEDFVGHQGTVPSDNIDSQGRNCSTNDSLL
# Test name: CRE-Luc reporter assay with control receptor ADBR2
# Format: cell-based
Measure: Gs pathway in the presence of ADBR2 (CRE-Luc reporter)

Worked examples follow.
- O=C(c1ccccc1)N1CCN(c2cc(N3CCCCC3)c(F)cc2[N+](=O)[O-])CC1 [compound 6]: did not inhibit
- O=C1CCCC2=C1C(c1ccc(OCCO)cc1)C1=C(N2)c2ccccc2C1=O (stereo not drawn) [compound 33]: did not inhibit
- O=C1CCCC2=C1C(c1ccc3c(c1)OCCO3)C1=C(N2)c2ccccc2C1=O (stereo not drawn) [compound 36]: did not inhibit
- CCCC(=O)c1ccc(N2CCN(S(=O)(=O)c3ccc(C)cc3)CC2)c(F)c1 [compound 4]: did not modulate
- Cc1cc(Cc2ccc(NC(=O)c3cccs3)c(C)c2)ccc1NC(=O)c1cccs1 [compound 21]: did not modulate

Hi! Can you tell me Gs pathway in the presence of ADBR2 (CRE-Luc reporter) for each of these compounds?
1. CC1CCN(c2cc(N3CCN(S(=O)(=O)c4ccccc4)CC3)c([N+](=O)[O-])cc2F)CC1 [compound 10]
2. CC(=O)N1CCN(c2cc(N3CCCCC3)c(F)cc2[N+](=O)[O-])CC1 [compound 2]
3. COc1ccc(C2C3=C(CCCC3=O)NC3=C2C(=O)c2ccccc23)cc1 (stereo not drawn) [compound 22]

Solution:
1: did not inhibit; 2: did not inhibit; 3: did not inhibit

Hi! Can you tell me Gs pathway in the presence of ADBR2 (CRE-Luc reporter) for each of these compounds?
1. O=[N+]([O-])c1cc(F)c(N2CCCCC2)cc1N1CCN(S(=O)(=O)c2ccccc2)CC1 [compound 11]
2. CCOC(=O)N1CCN(c2cc(N3CCCCC3)c(F)cc2[N+](=O)[O-])CC1 [compound 7]
3. CCOc1ccc(C2C3=C(CCCC3=O)NC3=C2C(=O)c2ccccc23)cc1 (stereo not drawn) [compound 23]
4. CCOC(=O)N1CCN(c2cc(N3CCC(C)CC3)c(F)cc2[N+](=O)[O-])CC1 [compound 1]
5. Cc1ccc(-c2nnc(Nc3ccccc3)c3ccccc23)cc1S(N)(=O)=O [compound 19]
6. O=C1CCCC2=C1C(c1ccncc1)C1=C(N2)c2ccccc2C1=O (stereo not drawn) [compound 42]
7. CCCCOc1ccc(C2C3=C(CCCC3=O)NC3=C2C(=O)c2ccccc23)cc1 (stereo not drawn) [compound 31]

Solution:
1: did not inhibit; 2: did not inhibit; 3: did not inhibit; 4: did not inhibit; 5: did not modulate; 6: did not inhibit; 7: did not inhibit

* * *

# System: human PBMCs
# Test name: Th1 cytokines in supernatants of stimulated human PBMC, GPR174 inhibitor with adenosine pathway inhibitors (Examples 15, 18-22)
# Format: cell-based
# Condition context: donor 7; with ZM-241385 0.1 μM; 1 μM (compound 20: 10 μM); label ZM = ZM alone
Marks after values point to notes of the source that are not given here.
Measure: GM-CSF, ratio relative to vehicle control

Worked examples follow.
• Cc1ccccc1Nc1nnc(-c2ccc(C)c(S(N)(=O)=O)c2)c2ccccc12 = 4.4*
• O=[N+]([O-])c1cc(F)c(N2CCCCC2)cc1N1CCN(S(=O)(=O)c2ccccc2)CC1 = 4.9*
• O=C(c1ccccc1)N1CCN(c2cc(N3CCCCC3)c(F)cc2[N+](=O)[O-])CC1 = 6.0*

Proceeding to the next compound to report its GM-CSF, ratio relative to vehicle control.
Problem: # GM-CSF, ratio relative to vehicle control lookup, item `CC1CCN(c2cc(N3CCN(S(=O)(=O)c4ccccc4)CC3)c([N+](=O)[O-])cc2F)CC1`
Solution: 5.9*

* * *

# Assayed target: GPR174 (Homo sapiens)
# Test name: CRE-Luc reporter Gs signaling assay with GPR174
# Format: cell-based
# Parameters: host or cells: HEK293 or CHO cell lines (ATCC)
# Condition context: pCRE-Luc reporter
Measure: Fold decrease in Gs signaling activity

- COc1ccc(C2C3=C(CCCC3=O)NC3=C2C(=O)c2ccccc23)cc1 (stereo not shown): 10.2 fold
- CC1CCN(c2cc(N3CCN(S(=O)(=O)c4ccccc4)CC3)c([N+](=O)[O-])cc2F)CC1: 5.1 fold
- CCOc1ccc(C2C3=C(CCCC3=O)NC3=C2C(=O)c2ccccc23)cn1 (stereo not shown): 7 fold
- CCC(=O)N1CCN(c2cc(N3CCC(C)CC3)c(F)cc2[N+](=O)[O-])CC1: 3.3 fold
- CCCCOc1ccc(C2C3=C(CCCC3=O)NC3=C2C(=O)c2ccccc23)cc1 (stereo not shown): 8.9 fold

Hi! Can you tell me Fold decrease in Gs signaling activity for each of these compounds?
1. O=C1CCCC2=C1C(c1ccncc1)C1=C(N2)c2ccccc2C1=O (stereo not shown)
2. O=C1CCCC2=C1C(c1ccc(Oc3ccccc3)cc1)C1=C(N2)c2ccccc2C1=O (stereo not shown)
3. Cc1ccc(S(=O)(=O)N2CCN(c3cc(N4CCC(C)CC4)c(F)cc3[N+](=O)[O-])CC2)cc1
4. CC(C)C(=O)N1CCN(c2cc(N3CCCCC3C)c(F)cc2[N+](=O)[O-])CC1 (stereo not shown)
5. CCOC(=O)N1CCN(c2cc(N3CCC(C)CC3)c(F)cc2[N+](=O)[O-])CC1
6. CCCC(=O)N1CCN(c2cc(N3CCCCC3)c(F)cc2[N+](=O)[O-])CC1

Solution:
1: 4.3 fold; 2: 7.1 fold; 3: 3 fold; 4: 2.1 fold; 5: 2.9 fold; 6: 2.4 fold

Hi! Can you tell me Fold decrease in Gs signaling activity for each of these compounds?
1. CCOC(=O)N1CCN(c2cc(N3CCCCC3C)c(F)cc2[N+](=O)[O-])CC1 (stereo not shown)
2. CCCCCCOc1ccc(C2C3=C(CCCC3=O)NC3=C2C(=O)c2ccccc23)cc1 (stereo not shown)
3. COc1cc(C2C3=C(CCCC3=O)NC3=C2C(=O)c2ccccc23)ccc1O (stereo not shown)
4. O=C1CCCC2=C1C(c1ccc(OCCO)cc1)C1=C(N2)c2ccccc2C1=O (stereo not shown)
5. O=C1CCCC2=C1C(c1ccc(OC(F)(F)F)cc1)C1=C(N2)c2ccccc2C1=O (stereo not shown)
6. CS(=O)(=O)c1ccc(C2C3=C(CCCC3=O)NC3=C2C(=O)c2ccccc23)cc1 (stereo not shown)
7. O=C1CCCC2=C1C(c1ccc3c(c1)OCCO3)C1=C(N2)c2ccccc2C1=O (stereo not shown)
8. O=[N+]([O-])c1cc(F)c(N2CCCCCC2)cc1N1CCN(S(=O)(=O)c2ccccc2)CC1

Solution:
1. 1.9 fold
2. 3.1 fold
3. 1.7 fold
4. 9.2 fold
5. 5 fold
6. 8.8 fold
7. 8.3 fold
8. 3.4 fold

Hi! Can you tell me Fold decrease in Gs signaling activity for each of these compounds?
1. CCOc1cccc(C2C3=C(CCCC3=O)NC3=C2C(=O)c2ccccc23)c1 (stereo not shown)
2. O=C1CCCC2=C1C(c1cccc(O)c1)C1=C(N2)c2ccccc2C1=O (stereo not shown)
3. CCCOc1ccc(C2C3=C(CCCC3=O)NC3=C2C(=O)c2ccccc23)cc1 (stereo not shown)
4. Cc1ccc(S(=O)(=O)N2CCN(c3cc(N4CCCCC4)c(F)cc3[N+](=O)[O-])CC2)cc1
5. O=C1CCCC2=C1C(c1ccc(-c3ccccc3)cc1)C1=C(N2)c2ccccc2C1=O (stereo not shown)

Solution:
["1.7 fold", "2.8 fold", "13.7 fold", "2.6 fold", "3.9 fold"]

These measurements were taken from patent US20200345725A1.
